FYI, the data here is from PubChem BioAssay (NCI).

System: MOLT-4 leukemia
protocol.summary: NCI tumour cell line growth inhibition, 48 h
Please respond with reported TGI for every item in the list.

Asked: # get_value(readout='TGI', item= CC(OC1CC(=O)CC2C(=O)C=CC(=O)C12)c1ccccc1 (stereo unspecified) )
Given back: > 49.2 µM

Asked: # get_value(readout='TGI', item= C/C(=N/NC(=S)N(C)CCc1ccccn1)c1cnccn1 )
Given back: > 71.1 µM

Asked: # get_value(readout='TGI', item= Cc1ccc(S(=O)(=O)NC(=O)NC(C(=O)O)C(C)O)cc1 (stereo unspecified) )
Given back: > 100 µM

Asked: # get_value(readout='TGI', item= CC(=O)/C(N=Nc1ccc(-n2c(C)nc3ccc(Br)cc3c2=O)cc1)=C(/C)O )
Given back: > 100 µM

Asked: # get_value(readout='TGI', item= CCc1cccc(CC)c1Nc1nc2c(s1)C(=O)c1ccccc1C2=O )
Given back: > 100 µM

Asked: # get_value(readout='TGI', item= c1cc2[nH]snc2c2cncc12 )
Given back: > 100 µM

----------
Test system: HCT-15 colon
protocol.summary: NCI tumour cell line growth inhibition, 48 h; in the data active = GI50 below about 0.43 µM; inactive = the rest
Mark one answer only. Choices: Y for active, N for inactive

Asked: Fill in: this test's call for O=C(C[C@@]1(O)C(=O)Nc2c(Cl)ccc(Cl)c21)c1ccc(C2CC2)cc1 is ___
Given back: Y

Asked: Fill in: this test's call for COc1ccc(S(=O)(=O)NC2=NCCN2C(=S)SN2CCn3c2nsc3=S)cc1OC is ___
Given back: N

Asked: Fill in: this test's call for C[C@H](C(=O)N[C@@H](Cc1ccc(-c2ccccc2)cc1)C(=O)NC1CC(C)(C)N(C)C(C)(C)C1)c1ccc(-c2ccccc2)c(F)c1 is ___
Given back: N

----------
Tested on: ACHN renal
protocol.summary: NCI tumour cell line growth inhibition, 48 h; in the data active = GI50 below about 0.43 µM; inactive = the rest
Mark one answer only. Choices: active, inactive

Asked: Fill in: this test's call for O=C1OCC2=C1C(c1cccc(C(F)(F)F)c1)c1cc3c(cc1N2CCO)OCO3 (stereo not given) is ___
Given back: inactive

Asked: Fill in: this test's call for CC(C)(C)OC(=O)N1CC(Cn2cc(C(F)(F)F)c3c(Cl)ncnc32)C1 is ___
Given back: inactive

Asked: Fill in: this test's call for COc1cc(/C=C2\CCCC3C2=Nc2ccccc2NC3c2cc(OC)c(OC)c(OC)c2)cc(OC)c1OC (stereo not given) is ___
Given back: inactive

Asked: Fill in: this test's call for CCOC(=O)/C(=C/c1ccccc1)C(=O)c1ccccc1 is ___
Given back: inactive

Asked: Fill in: this test's call for COc1cc(C(C)(C)C)cc(OC)c1C(O)(c1c(OC)cc(C(C)(C)C)cc1OC)c1c(OC)cc(C(C)(C)C)cc1OC is ___
Given back: active

----------
System: MDA-MB-435
protocol.summary: NCI tumour cell line growth inhibition, 48 h
measure: TGI

Asked: Request: TGI, test system MDA-MB-435, entry Cc1ccc(C(=O)OC(C)C)cc1N=NN(C)C
Given back: > 100 µM

Asked: Request: TGI, test system MDA-MB-435, entry COc1ccc2[nH]c3c(C)c4cc[n+](C)cc4c(C)c3c2c1
Given back: > 88.3 µM

Asked: Request: TGI, test system MDA-MB-435, entry COc1cc([N+](=O)[O-])c(S(=O)(=O)O)cc1N
Given back: > 100 µM

Asked: Request: TGI, test system MDA-MB-435, entry FC(F)(F)c1ccc2c(c1)nc(Cc1ccc(Cl)c(Cl)c1)n2CC1CCCN2CCCCC12 (stereo not given)
Given back: > 100 µM

Asked: Request: TGI, test system MDA-MB-435, entry CC1=C(C(=O)NNC(=O)C(N)=O)CC(C(=O)NNC(=O)C(N)=O)=C(C)N1
Given back: > 100 µM

Asked: Request: TGI, test system MDA-MB-435, entry CCN(CC)C(=S)SC(=S)N(CC)CC
Given back: > 100 µM

Asked: Request: TGI, test system MDA-MB-435, entry CCN(CC)CCOc1ccc(N2Cc3ccccc3C2=O)cc1
Given back: > 10 µM

Asked: Request: TGI, test system MDA-MB-435, entry Cc1cc(S(=O)(=O)Nc2nc3ccccc3[nH]2)c(S)cc1Cl
Given back: > 100 µM

Asked: Request: TGI, test system MDA-MB-435, entry Cc1ccc(-c2cn3c(nc4ccccc43)c(-c3ccccc3)n2)cc1
Given back: > 100 µM

Asked: Request: TGI, test system MDA-MB-435, entry CC1=CSC(O)(c2ccc(Cl)cc2)c2noc(=O)n21 (stereo not given)
Given back: > 100 µM
